Catalogue of inhibition readings, one per entry.
# system: Integrin alpha-IIb (Homo sapiens) (UniProt P08514)
# Sequence (P08514 whole entry, looked up): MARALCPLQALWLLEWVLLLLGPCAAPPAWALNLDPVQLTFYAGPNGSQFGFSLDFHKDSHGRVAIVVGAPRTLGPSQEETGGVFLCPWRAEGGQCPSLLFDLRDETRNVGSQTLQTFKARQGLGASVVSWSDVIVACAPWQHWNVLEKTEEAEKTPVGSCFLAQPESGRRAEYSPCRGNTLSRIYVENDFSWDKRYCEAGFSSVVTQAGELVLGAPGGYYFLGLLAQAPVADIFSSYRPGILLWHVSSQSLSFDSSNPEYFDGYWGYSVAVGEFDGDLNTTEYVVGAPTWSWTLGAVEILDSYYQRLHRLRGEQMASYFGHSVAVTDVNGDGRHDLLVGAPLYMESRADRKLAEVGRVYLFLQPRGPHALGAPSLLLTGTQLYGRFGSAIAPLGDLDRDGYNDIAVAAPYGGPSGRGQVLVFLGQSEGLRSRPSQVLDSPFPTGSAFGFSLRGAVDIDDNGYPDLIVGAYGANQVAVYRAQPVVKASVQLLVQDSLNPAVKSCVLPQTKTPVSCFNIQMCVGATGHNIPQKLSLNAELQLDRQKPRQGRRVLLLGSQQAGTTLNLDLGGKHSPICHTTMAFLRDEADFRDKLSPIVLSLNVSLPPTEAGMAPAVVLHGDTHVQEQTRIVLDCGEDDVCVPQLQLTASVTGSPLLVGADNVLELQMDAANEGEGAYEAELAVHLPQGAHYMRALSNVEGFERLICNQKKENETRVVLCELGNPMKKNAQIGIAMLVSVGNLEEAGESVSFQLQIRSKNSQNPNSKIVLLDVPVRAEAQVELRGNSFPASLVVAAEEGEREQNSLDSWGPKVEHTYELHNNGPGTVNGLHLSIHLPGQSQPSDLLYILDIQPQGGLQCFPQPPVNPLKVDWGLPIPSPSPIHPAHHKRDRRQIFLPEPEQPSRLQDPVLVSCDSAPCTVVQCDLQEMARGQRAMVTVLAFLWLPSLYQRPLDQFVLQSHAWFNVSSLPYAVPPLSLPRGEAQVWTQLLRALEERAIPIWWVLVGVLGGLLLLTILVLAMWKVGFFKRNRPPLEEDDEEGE
# measurementDescription: Platelet Adhesion Secondary Assay for Inhibitors of Platelet Integrin alphallb-beta3
# studyConditions: human platelet adhesion to fibrinogen, calcein fluorescence; at 30 µM, hits give high values unless noted
Inconclusive results are not listed. Activity calls are given as the source filed them.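 How the source made its calls: active means compounds whose potency, the dose giving half inhibition, is below 20 µM; inconclusive means compounds meeting neither the active nor the inactive rule; inactive means potency over 20 µM or below 50% inhibition when unfitted.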

Req: Quote inhibition reported for CCc1nn2c(=O)cc(N3CCN(C)CC3)nc2s1 please.
Resp: 23% (inactive)

Turning to the following compound.
Req: Quote inhibition reported for Cc1nn2c(=O)cc(N3CCNCC3)nc2s1 please.
Resp: 20% (inactive)
